Reported selectivity ratio values for the following compounds.
Experiment: Relative toxicity was evaluated as ED50 for KB cell line to that of ED50 for T.B. brucei
Format: organism-based
Conditions: trypanosoma brucei brucei, KB cells versus Trypanosoma brucei brucei; read-out: Relative toxicity
// return just the number, without any unit appended

Consider the worked cases shown below.
>>> reported_measurement("COCCOC(=O)CNC(=O)C(CSc1ccc([N+](=O)[O-])cc1[N+](=O)[O-])NC(=O)CCC(NC(=O)OCc1ccccc1)C(=O)OCCOC (stereo not drawn)")
0.07
>>> reported_measurement("CCCCCCOC(=O)CNC(=O)C(CSc1ccc([N+](=O)[O-])cc1[N+](=O)[O-])NC(=O)CCC(NC(=O)OCc1ccccc1)C(=O)OCCCCCC (stereo not drawn)")
18.8
>>> reported_measurement("CC(C)CC(C)OC(=O)CNC(=O)C(CSc1ccc([N+](=O)[O-])cc1[N+](=O)[O-])NC(=O)CCC(NC(=O)OCc1ccccc1)C(=O)OC(C)CC(C)C (stereo not drawn)")
173
>>> reported_measurement("CCC(C)OC(=O)CNC(=O)C(CSc1ccc([N+](=O)[O-])cc1[N+](=O)[O-])NC(=O)CCC(NC(=O)OCc1ccccc1)C(=O)OC(C)CC (stereo not drawn)")
150
>>> reported_measurement("O=C(CCC(NC(=O)OCc1ccccc1)C(=O)OC1CCCCC1)NC(CSc1ccc([N+](=O)[O-])cc1[N+](=O)[O-])C(=O)NCC(=O)OC1CCCCC1 (stereo not drawn)")
243

In one line, give reported selectivity ratio of the entry O=C(CCC(NC(=O)OCc1ccccc1)C(=O)OCCF)NC(CSc1ccc([N+](=O)[O-])cc1[N+](=O)[O-])C(=O)NCC(=O)OCCF (stereo not drawn) .
0.99

Give a short answer stating reported selectivity ratio for O=C(CCC(NC(=O)OCc1ccccc1)C(=O)OCCCCCl)NC(CSc1ccc([N+](=O)[O-])cc1[N+](=O)[O-])C(=O)NCC(=O)OCCCCCl (stereo not drawn) .
0.12

Specify measured selectivity ratio for O=C(CCC(NC(=O)OCc1ccccc1)C(=O)OC1CCCC1)NC(CSc1ccc([N+](=O)[O-])cc1[N+](=O)[O-])C(=O)NCC(=O)OC1CCCC1 (stereo not drawn) .
280
